# System: recombinant human proprotein convertase subtilisin/kexin 9 (hPCSK9), his-tagged, Q8NBP7
# Sequence (Q8NBP7 153-692): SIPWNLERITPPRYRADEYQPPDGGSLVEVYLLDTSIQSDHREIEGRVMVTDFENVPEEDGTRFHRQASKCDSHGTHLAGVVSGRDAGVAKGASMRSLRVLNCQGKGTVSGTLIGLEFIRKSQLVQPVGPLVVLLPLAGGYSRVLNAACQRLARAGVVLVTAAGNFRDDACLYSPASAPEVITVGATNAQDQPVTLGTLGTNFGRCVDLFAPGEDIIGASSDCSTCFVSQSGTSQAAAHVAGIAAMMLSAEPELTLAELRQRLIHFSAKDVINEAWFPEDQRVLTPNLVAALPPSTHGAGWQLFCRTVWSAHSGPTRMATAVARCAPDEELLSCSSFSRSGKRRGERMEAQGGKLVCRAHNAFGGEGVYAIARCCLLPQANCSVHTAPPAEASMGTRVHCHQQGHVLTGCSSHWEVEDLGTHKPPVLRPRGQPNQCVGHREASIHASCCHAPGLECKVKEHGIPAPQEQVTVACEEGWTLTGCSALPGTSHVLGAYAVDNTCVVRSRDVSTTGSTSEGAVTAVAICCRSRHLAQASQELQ
# Experiment Description: SPR
# Cond: chain shown with the change; 25 ℃; parent: ~5.013
pKd: −log10 of the molar value.
This listing pairs binders with measured pKd.
Measurement Type: pKd

binder="VHH-B11 (monovalent camelid nanobody against hPCSK9) FR1:Q1E; FR1:Q5L; FR1:S11L; FR1:A14P; FR1:T23A; FR1:V24A; FR2:A54S; FR3:V87L; FR3:K95R; FR3:P96A; FR3:M101V (protein) EVQLLESGGGLVQPGGSLRLSCAASGYTYSSNCMGWFRQAPGKEHEGVSSIYIGGGSTYYADSVKGRFTISQDNAKNTLYLQMNSLRAEDTAVYYCAVGCQGLVDFGYWDQGTQVTVSS" inequality_sign=< val=6.00
binder="VHH-B11 (monovalent camelid nanobody against hPCSK9) FR1:Q1E; FR1:Q5L; FR1:S11L; FR1:A14P; FR1:T23A; FR1:V24A; FR2:A54S; FR3:A83S; FR3:V87L; FR3:K95R; … (protein) EVQLLESGGGLVQPGGSLRLSCAASGYTYSSNCMGWFRQAPGKEHEGVSSIYIGGGSTYYADSVKGRFTISQDNSKNTLYLQMNSLRAEDTAVYYCAVGCQGLVDFGYWDQGTQVTVSS" inequality_sign=< val=6.00
binder="VHH-B11 (monovalent camelid nanobody against hPCSK9) FR1:Q1E; FR1:Q5L; FR1:S11L; FR1:A14P; FR1:T23A; FR1:V24A; FR2:A54S; FR3:A83S; FR3:K95R; FR3:P96A; FR3:M101V (protein) EVQLLESGGGLVQPGGSLRLSCAASGYTYSSNCMGWFRQAPGKEHEGVSSIYIGGGSTYYADSVKGRFTISQDNSKNTVYLQMNSLRAEDTAVYYCAVGCQGLVDFGYWDQGTQVTVSS" inequality_sign== val=7.95
binder="VHH-B11 (monovalent camelid nanobody against hPCSK9) FR1:Q1E; FR1:Q5L; FR1:S11L; FR1:A14P; FR2:A54S; FR3:Q80R; FR3:A83S; FR3:V87L; FR3:K95R; FR3:P96A; FR3:M101V (protein) EVQLLESGGGLVQPGGSLRLSCTVSGYTYSSNCMGWFRQAPGKEHEGVSSIYIGGGSTYYADSVKGRFTISRDNSKNTLYLQMNSLRAEDTAVYYCAVGCQGLVDFGYWDQGTQVTVSS" inequality_sign== val=8.10
binder="VHH-B11 (monovalent camelid nanobody against hPCSK9) FR1:Q1E; FR1:Q5L; FR1:S11L; FR1:A14P; FR1:T23A; FR1:V24A; FR3:V87L; FR3:K95R; FR3:P96A; FR3:M101V (protein) EVQLLESGGGLVQPGGSLRLSCAASGYTYSSNCMGWFRQAPGKEHEGVASIYIGGGSTYYADSVKGRFTISQDNAKNTLYLQMNSLRAEDTAVYYCAVGCQGLVDFGYWDQGTQVTVSS" inequality_sign== val=8.49
